tested target: T1, Ab-1
T1 construct: also called anti-CD28 scFv harbored in Ab-1
T1 sequence (heavy, as listed by the source, chain 1 of 2): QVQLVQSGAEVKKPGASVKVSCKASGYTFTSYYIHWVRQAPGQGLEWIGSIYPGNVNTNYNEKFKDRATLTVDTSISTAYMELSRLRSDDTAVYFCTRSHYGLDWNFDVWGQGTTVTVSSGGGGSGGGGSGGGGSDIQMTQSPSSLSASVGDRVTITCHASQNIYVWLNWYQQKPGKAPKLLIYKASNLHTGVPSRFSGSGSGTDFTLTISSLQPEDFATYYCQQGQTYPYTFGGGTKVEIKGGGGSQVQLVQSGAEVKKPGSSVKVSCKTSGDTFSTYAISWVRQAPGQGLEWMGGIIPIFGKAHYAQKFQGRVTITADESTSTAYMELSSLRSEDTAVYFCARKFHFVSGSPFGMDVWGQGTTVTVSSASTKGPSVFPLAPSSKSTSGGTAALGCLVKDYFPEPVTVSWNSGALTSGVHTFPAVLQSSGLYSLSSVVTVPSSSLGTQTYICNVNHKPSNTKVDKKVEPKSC
T1 sequence (light, as listed by the source, chain 2 of 2): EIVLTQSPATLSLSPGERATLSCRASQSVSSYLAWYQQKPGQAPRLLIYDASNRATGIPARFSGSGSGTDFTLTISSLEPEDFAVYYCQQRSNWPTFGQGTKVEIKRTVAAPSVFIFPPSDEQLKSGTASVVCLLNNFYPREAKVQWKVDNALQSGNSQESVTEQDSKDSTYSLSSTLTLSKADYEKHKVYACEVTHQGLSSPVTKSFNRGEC
assay remarks: BLI (Octet), peptide on sensor, Ab-1 titrated, 1:1 model
No end group written: not given here.
Collected Kd values appear next to each entry.
Dear colleague, please return just the value in nM, with no unit written.

// below: answered binders
- binder: "QDWCPRDLWVHCFA (cysteine pairing not given here; also: biotinylated, site not given here) [Peptide-6]"
  Kd [nM]: 24.6
- binder: "EDWCPRDLWVHCFA (cysteine pairing not given here; also: biotinylated, site not given here) [Peptide-7]"
  Kd [nM]: 23.2
- binder: "MDWCPRDLWVHCFA (cysteine pairing not given here; also: biotinylated, site not given here) [Peptide-1]"
  Kd [nM]: 15.1

Can you share its Kd? I mean this binder: TDWCPRDLWVHCFA (cysteine pairing not given here; also: biotinylated, site not given here) [Peptide-16]
25.5

Can you share its Kd? I mean this binder: RDWCPRDLWVHCFA (cysteine pairing not given here; also: biotinylated, site not given here) [Peptide-3]
20.3

Can you share its Kd? I mean this binder: KDWCPRDLWVHCFA (cysteine pairing not given here; also: biotinylated, site not given here) [Peptide-12]
26.1
